Quick reference: pKd of the listed items.
experimental target: T1, rhesus monkey TROP2-Fc antigen protein (rhesus monkey, UniProt A0A5F8AGB8 27-274)
T1 construct: not shown: Fc
T1 sequence: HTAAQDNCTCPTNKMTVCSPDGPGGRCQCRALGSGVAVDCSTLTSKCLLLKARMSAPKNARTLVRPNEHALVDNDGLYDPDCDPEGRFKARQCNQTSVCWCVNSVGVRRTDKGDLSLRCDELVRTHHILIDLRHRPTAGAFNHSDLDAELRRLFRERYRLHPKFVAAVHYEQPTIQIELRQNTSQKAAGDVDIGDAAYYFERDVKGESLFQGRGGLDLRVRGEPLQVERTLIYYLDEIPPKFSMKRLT
assay comment: ELISA, coated rhesus monkey TROP2-Fc, Kd calculated from absorbance
pKd: −log10 of the molar value.
experimental readout: pKd

binder	recorded number
MY1530-5-17 (VHH, Expressed in E. coli WK6 from vector pMECS, purified on a nickel column; also called MY1530-5-17 VHH; anti-TROP2 single domain antibody) VHH: QVQLQESGGGSVQPGGSLRLSCVVSGYTVSSVCMAWFRQAPGMERELVAGFYHSGGTYYGDSVKGRFTASQDNAKNTLYLQMNSLKPEDTATYYCARARYPSSACGTSPSNYNIWGQGTQVTVSS	8.75
MY1530-6-1 (VHH, Expressed in E. coli WK6 from vector pMECS, purified on a nickel column; also called MY1530-6-1 VHH; anti-TROP2 single domain antibody) VHH: QVQLQESGGGSVQAGGSLRLSCAASGFPYSSYSMGWFRQAPGKEREGVAAIYTGGGSTYYAGSVKGRFTISQEHATNTLYLQMNSLKPEDTAMYYCAANMVDNGVISGIQALGVRYYNYWGQGTQVTVSS	8.35
